- protocol.notes: yeast display, Sf9 membrane polyspecificity reagent, FACS + sequencing; frameworks hold sequencing errors
measure.name: polyreactivity (PSR sort gate)

Here is how some sequences turned out for polyreactivity (PSR sort gate).
sequence.string	obs.value
QVQLVESGGGLFHAGGSLRLSCPDSGSTFYRYTMGCYRQAPGKERELVAAITSGGGTDYADSVKARFTISRDNAKNTVYLQLISLKPEDTAVYFCADFLSWRDYYLYWRGSWREDYWGQGTQVTVSS	low polyreactivity
QVQLVESGGGLVQAGGSLRLSCAASGTFYTNAMGWYRPAPGKERELVAAITSGGSTYYADSVKGRFTISRDNAKNTVYLQMNSLKPEDTAVYYCAADPVSHGYDIDYDYWGQGTQVTVSS	low polyreactivity
QVQLVESGGGLVQAGGSLRLSCAASGSIFTSNAMGWYRQAPGKERELVAAISWSGTSTYYADSVKGRFTISRDNAKNTVYLQMNSLKPEDTAVYYCNADTNYWEDDYWGQGTQVTVSS	low polyreactivity
QVQLVESGGGLVQAGGSLRLSCAASGLTFYYNAMGSYRQAPGKERELVAAISRSAGSTYYADSVKGRFTISRDNAKNTVYLQMHSLKPEDTAVYYCAVGYVYTRKGRVQPVKYDYWGQGTQVTVSS	high polyreactivity
QVQLVESGGGLVQAGGSLRLSCAASGSTFRYYAMGWYRQAPGKERELVAVISASGGTTYYADSVKGRFTISRDNAKNTVYLQMNSLKPEDTAVYYCAAREGWGFYYWGQGTQVTVSS	high polyreactivity

# input sequence: "QVQLVESGGGLVQAGGSLRLSCAASGGTIVWNAMGWNRQAPGKEREFVAAITSSGGSTYYADSVKGRFTISRDNAKNSVYLQMNSLKPEDTAVYYCNVDTHSSYEFNSWGQGTQVTVSS" ; wanted: its polyreactivity (PSR sort gate)
low polyreactivity

If you can, please state the reported polyreactivity (PSR sort gate) value of "QVQLVESGGGLFQAGGSLRLTCAASGSIFTVYSIGLYRQAPGKERELVAGISSGAGTTYADSVKGRFTISRDNAKNTVYLQMNSLIPEVTAVYYCAAYTWDTDHYWYGYVPYDYWGQGTQVTVSS" .
low polyreactivity

Using the record for "QVQLVESGGGLVQAGGSLRLSCAASGSISGYYAMGWYRQAPGKERELVASIRYTGARTYYADSVKGRFTISRDNAKNTVYLQMNSLKPEDTAVYYCAADFRSVFSKYSYYLYFDFDYWGQGTQVTVSS" , report its polyreactivity (PSR sort gate).
low polyreactivity

Recorded polyreactivity (PSR sort gate) for "QVHLVESGGGLVQAGGSLRLSCAASGRIFNYYAMGWYRQAHGKERELVAAISNGGSTYYADSVKGRFTISRDNAKNTVYLQMNSLKPEDTAVYYCNAAARNGYARRVYYWGQGTQVTVSS" , please?
high polyreactivity

What does the data say about its polyreactivity (PSR sort gate)? Entry: "QVQLVESGGCLVQAGCSRRLSCAASVRIFARNTMGWSRQAPGKERELVAAISWGGGRTYYADSVKGRFTISRDNAKNTVYLQMNSLKPEDTAVYYCAAETLQIPRGEYWGQGTQVTVSS"
low polyreactivity

Which polyreactivity (PSR sort gate) value belongs to "QVQLVESGGGLVQAGGSLRLSCAASGRIFLKYTMGWYRQAPGKERELVAAISRGGSTYYADSVKGRFTISRDNAKNTVYLQMNSLKPEDTAVYYCAATSYRRTGYNYWGQGTQVTVSS" ?
high polyreactivity
